System: BML-17
Measurement Description: Hemagglutination-inhibition test with BML-17 and trypsin-treated rabbit erythrocytes
Format: cell-based, Bryopsis maxima
Condition Details: monosaccharides and oligosaccharides; inhibition of BML-17 (agglutination titer 4) agglutination of TRBC
Protocol: Hemagglutinating activity was measured using a micro titer method. Twenty-five μl of serially two-fold dilutions of each purified fraction solution adjusted with saline was placed on a micro titer plate. Each diluted solution was supplemented with 25 μl of a 2% suspension of trypsin-treated rabbit erythrocytes and was gently stirred. […] Agglutination was evaluated with naked eye. Agglutination of 50% or greater percentage of red blood cells was evaluated as positive. […]
Readout Type: Minimum inhibitory concentration

| Compound | Endpoint Result |
| --- | --- |
| O=C[C@@H](O)[C@@H](O)[C@H](O)[C@H](O)CO [D-Mannose] | 12.5 mM |
